Target: T1, human GIP receptor (human, UniProt P48546 22-466)
T1 sequence (looked up): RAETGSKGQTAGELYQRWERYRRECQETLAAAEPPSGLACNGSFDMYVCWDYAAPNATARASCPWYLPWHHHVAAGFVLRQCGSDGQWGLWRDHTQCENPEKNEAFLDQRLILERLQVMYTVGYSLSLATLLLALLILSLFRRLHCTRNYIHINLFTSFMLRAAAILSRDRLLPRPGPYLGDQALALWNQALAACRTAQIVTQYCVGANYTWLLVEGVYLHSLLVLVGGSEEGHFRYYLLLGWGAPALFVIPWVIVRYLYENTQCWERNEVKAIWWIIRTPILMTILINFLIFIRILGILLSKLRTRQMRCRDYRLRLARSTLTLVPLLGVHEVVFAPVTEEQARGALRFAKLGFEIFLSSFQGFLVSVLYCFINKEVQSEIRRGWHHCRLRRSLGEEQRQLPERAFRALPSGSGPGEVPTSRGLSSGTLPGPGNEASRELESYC
Assay: cell-based or functional assay
Bridges are numbered along the chain shown (N, C = ends). Where no end group is shown, it is not given here. [ ]: non-standard residue; d: D form. The star is where a group is joined. Acetyl(2-(4-imidazolyl)) = O=C(Cc1c[nH]cn1)*; Aib = CC(C)(N)C(=O)O
MEASUREMENT_NAME: in vitro Activity Compared to Native Peptide (%), vs GIP
Output spec: scalar in %, unitless text.

BINDER	VALUE_OBSERVED
[Acetyl(2-(4-imidazolyl))][Aib]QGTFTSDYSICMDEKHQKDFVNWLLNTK (bridge 16-20; not fully specified (C-terminus)) [triple agonist of SEQ ID NO: 59]	4

Now for a further binder.
Data request, read-out in vitro Activity Compared to Native Peptide (%), vs GIP, for [Acetyl(2-(4-imidazolyl))][Aib]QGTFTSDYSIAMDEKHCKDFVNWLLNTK (bridge 16-20; not fully specified (C-terminus)) [triple agonist of SEQ ID NO: 60] 8.2
